Source of measurements: ChEMBL document CHEMBL2331340

Experiment Notes: Cytotoxicity against human OECM1 cells after 72 hrs by Alamar blue assay
Assay type: functional, cell-based
Measurement Setup: OECM1, 72 h
Observed Property: IC50 (µM)
Numbers only here, please. The scale is µM.

Form: molecule = Cc1c(CO)c(CO)c2n1Cc1c(c3ccccc3n1Cc1ccccc1)C2 ; IC50 = 4.17

Form: molecule = Cn1c2c(c3ccccc31)Cc1c(CO)c(CO)c(-c3ccc(Cl)cc3)n1C2 ; IC50 = 17.2

Form: molecule = CCc1c(COC(=O)NC(C)C)c(COC(=O)NC(C)C)c2n1Cc1c(c3ccccc3n1C)C2 ; IC50 = 2.02

Form: molecule = Cc1c(CO)c(CO)c2n1Cc1c(c3ccccc3n1C)C2 ; IC50 = 0.96

Form: molecule = CCNC(=O)OCc1c(COC(=O)NCC)c(-c2ccc(OC)cc2)n2c1Cc1c(n(C)c3ccccc13)C2 ; IC50 = 6.15

Form: molecule = CCc1c(CO)c(CO)c2n1Cc1c(c3ccccc3n1C)C2 ; IC50 = 2.11

Form: molecule = CC(C)NC(=O)OCc1c(COC(=O)NC(C)C)c(-c2ccc(F)cc2)n2c1Cc1c(n(C)c3ccccc13)C2 ; IC50 = 6.56

Form: molecule = CCNC(=O)OCc1c(COC(=O)NCC)c(-c2ccccc2)n2c1Cc1c(n(C)c3ccccc13)C2 ; IC50 = 5.19

Form: molecule = CCNC(=O)OCc1c(COC(=O)NCC)c2n(c1C)Cc1c(c3ccccc3n1C)C2 ; IC50 = 1.9

Form: molecule = CC(C)NC(=O)OCc1c(COC(=O)NC(C)C)c(-c2ccc(Cl)cc2)n2c1Cc1c(n(C)c3ccccc13)C2 ; IC50 = 12.7

Form: molecule = CCNC(=O)OCc1c(COC(=O)NCC)c(-c2ccc(Cl)cc2)n2c1Cc1c(n(C)c3ccccc13)C2 ; IC50 = 9.01

Form: molecule = CCNC(=O)OCc1c(COC(=O)NCC)c2n(c1C)Cc1c(c3ccccc3n1Cc1ccccc1)C2 ; IC50 = 5.42

Form: molecule = COc1ccc(-c2c(CO)c(CO)c3n2Cc2c(c4ccccc4n2C)C3)cc1OC ; IC50 = 37.2

Form: molecule = COc1ccc(-c2c(COC(=O)NC(C)C)c(COC(=O)NC(C)C)c3n2Cc2c(c4ccccc4n2C)C3)cc1 ; IC50 = 4.17

Form: molecule = CC(C)NC(=O)OCc1c(COC(=O)NC(C)C)c(-c2ccccc2)n2c1Cc1c(n(C)c3ccccc13)C2 ; IC50 = 4.87

Form: molecule = CC(C)NC(=O)OCc1c(COC(=O)NC(C)C)c(-c2ccc(F)c(F)c2)n2c1Cc1c(n(C)c3ccccc13)C2 ; IC50 = 15.2

Form: molecule = Cc1c(COC(=O)NC(C)C)c(COC(=O)NC(C)C)c2n1Cc1c(c3ccccc3n1C)C2 ; IC50 = 1.45

Form: molecule = CCNC(=O)OCc1c(COC(=O)NCC)c(-c2ccc(F)c(F)c2)n2c1Cc1c(n(C)c3ccccc13)C2 ; IC50 = 14.4

Form: molecule = Cc1c(COC(=O)NC(C)C)c(COC(=O)NC(C)C)c2n1Cc1c(c3ccccc3n1Cc1ccccc1)C2 ; IC50 = 4.2

Form: molecule = CCNC(=O)OCc1c(COC(=O)NCC)c(-c2ccc(OC)c(OC)c2)n2c1Cc1c(n(C)c3ccccc13)C2 ; IC50 = 5.29
